Target: T1, biotinylated huIL-23R-IgG (human, UniProt Q5VWK5 24-353, biotinylated)
T1 construct: not shown: human IgG1 Fc
T1 sequence: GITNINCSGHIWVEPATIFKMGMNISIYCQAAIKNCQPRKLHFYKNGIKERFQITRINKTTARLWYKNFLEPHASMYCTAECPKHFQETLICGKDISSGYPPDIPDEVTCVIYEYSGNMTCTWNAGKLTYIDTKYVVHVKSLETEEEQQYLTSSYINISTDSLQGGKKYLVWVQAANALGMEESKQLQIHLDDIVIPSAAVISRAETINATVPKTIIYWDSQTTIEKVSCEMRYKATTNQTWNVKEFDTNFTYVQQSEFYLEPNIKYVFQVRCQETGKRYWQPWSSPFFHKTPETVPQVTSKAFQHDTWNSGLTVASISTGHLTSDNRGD
Assay: ECL binding assay, periplasmic Fab extracts, biotinylated huIL-23R-IgG; AUC vs parental 8B10 Fab
Below, each entry is listed with its recorded Binding (% of w.t.).

Field: example entries. Status: answers known.
binder: chimeric 8B10 Fab, VH Y32A (Fab, V domains shown, Rat V domains with human CH1 and CL; E. coli periplasmic extract) VH: EVKLVESGGGLEQPKGSLKLSCTVSGFDFNSAGMSWVRQAPGKGLDLVADINSKSYNYATYYADSVKDRFTISRDDSQSMVYLEMDNLKTEDTALYYCTVHHSDYFEYWGQGVMVTVSS VL: DIQMTQSPASLSASLGETVSIECLASEDIYNNLAWYQQKPGKSPQLLIYHASSLQDGVPSRFSGSGSGTQYSLKINSLESEDAATYFCLQDSEYPPTFGGGTKLELKR
Binding (% of w.t.): 76.3 % of w.t.

binder: chimeric 8B10 Fab, VH F106A (Fab, V domains shown, Rat V domains with human CH1 and CL; E. coli periplasmic extract) VH: EVKLVESGGGLEQPKGSLKLSCTVSGFDFNSYGMSWVRQAPGKGLDLVADINSKSYNYATYYADSVKDRFTISRDDSQSMVYLEMDNLKTEDTALYYCTVHHSDYAEYWGQGVMVTVSS VL: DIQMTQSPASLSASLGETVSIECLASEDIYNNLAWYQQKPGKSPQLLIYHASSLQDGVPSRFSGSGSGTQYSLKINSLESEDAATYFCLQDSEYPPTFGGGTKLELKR
Binding (% of w.t.): 71.1 % of w.t.

Req: Request the reported Binding (% of w.t.) associated with chimeric 8B10 Fab, VH Y58G (Fab, V domains shown, Rat V domains with human CH1 and CL; E. coli periplasmic extract) VH: EVKLVESGGGLEQPKGSLKLSCTVSGFDFNSYGMSWVRQAPGKGLDLVADINSKSYNGATYYADSVKDRFTISRDDSQSMVYLEMDNLKTEDTALYYCTVHHSDYFEYWGQGVMVTVSS VL: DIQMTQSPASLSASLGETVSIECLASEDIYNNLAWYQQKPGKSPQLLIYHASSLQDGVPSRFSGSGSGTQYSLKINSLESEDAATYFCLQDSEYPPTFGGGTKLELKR
Resp: 53 % of w.t.
